Species on record: Rattus norvegicus
test-description: Inhibition of rat recombinant geranylgeranyltransferase type I expressed in Escherichia coli assessed as residual enzyme activity for geranylgeranylation of K-Ras4B at 50 uM incubated for 30 mins in presence of [3H]GGPP by scintillation counting assay relative to control
assay-endpoint: Activity (%)
Numeric only. Scale: %

{"columns": ["record-smiles", "units-symbol", "Activity"],
 "data": [
  ["COc1cc([C@@H]2C[C@@H](Sc3ccc(C)cc3)[C@H](C(=O)O)CN2S(=O)(=O)c2ccc(C)cc2)cc(OC)c1OC", "%", 95.6],
  ["Cc1ccc(S[C@@H]2C[C@@H](c3ccc(Cl)cc3)N(S(=O)(=O)c3ccc(C)cc3)C[C@H]2C(=O)O)cc1", "%", 76.1]
]}

Give the reported value of Activity for this record: `CCOc1ccc([C@@H]2CC=C(C(=O)O)[C@H](c3cccc(F)c3)N2S(=O)(=O)c2ccc(C)cc2)cc1`
87.5

Give the reported value of Activity for this record: `Cc1ccc(S(=O)(=O)N2[C@@H](c3ccc(Br)cc3)C(C(=O)O)=CC[C@H]2c2ccc(F)cc2)cc1`
62.6

Give the reported value of Activity for this record: `COc1ccc([C@@H]2CC=C(C(=O)O)[C@H](c3ccc(C)cc3)N2S(=O)(=O)c2ccccc2C)cc1`
86

Give the reported value of Activity for this record: `Cc1ccc([C@@H]2CC=C(C(=O)O)[C@H](c3ccc(Cl)cc3)N2S(=O)(=O)c2ccc(C)cc2)cc1`
67.4

----------
Species on record: Rattus norvegicus
test-description: Inhibition of rat recombinant geranylgeranyltransferase type I expressed in Escherichia coli assessed as residual enzyme activity for geranylgeranylation of K-Ras4B at 50 uM incubated for 30 mins in presence of [3H]GGPP by scintillation counting assay relative to control
assay-endpoint: Activity

Solved cases (2 shown):
{"columns": ["record-smiles", "Activity"],
 "data": [
  ["Cc1ccc(S(=O)(=O)N2[C@@H](c3cccc(C)c3)C(C(=O)O)=CC[C@H]2c2ccc(Cl)c(Cl)c2)cc1", "12.6 to 20.2%"],
  ["Cc1ccc(S(=O)(=O)N2C[C@@H](C(=O)O)[C@H](SCc3ccc(Cl)cc3)C[C@H]2c2ccc(Cl)cc2)cc1", "15.5 to 18.1%"]
]}

The record that follows has no Activity shown yet.
Give the reported value of Activity for this record: `Cc1ccc([C@@H]2CC=C(C(=O)O)[C@H](c3cccc(Br)c3)N2S(=O)(=O)c2ccc(Cl)cc2)cc1`
8.4 to 19.9%

----------
Below is a list of entries, each paired with its recorded Activity value.
Species: Rattus norvegicus
test-description: Inhibition of rat recombinant geranylgeranyltransferase type I expressed in Escherichia coli assessed as residual enzyme activity for geranylgeranylation of K-Ras4B at 50 uM incubated for 30 mins in presence of [3H]GGPP by scintillation counting assay relative to control
Numeric only. Scale: %

Solved cases (6 shown):
{"columns": ["record-smiles", "experimental-value"],
 "data": [
  ["COc1cc([C@@H]2C[C@@H](SCC(C)C)[C@H](C(=O)O)CN2S(=O)(=O)c2ccc(C)cc2)cc(OC)c1OC", 98.3],
  ["COC(=O)c1ccccc1S(=O)(=O)N1[C@@H](c2cccc(C)c2)C(C(=O)O)=CC[C@H]1c1ccc(C)cc1", 54.2],
  ["CCCS[C@@H]1C[C@@H](c2ccc(C)cc2)N(S(=O)(=O)c2ccccc2)C[C@H]1C(=O)O", 100],
  ["Cc1ccc(S(=O)(=O)N2[C@@H](c3cccc(C)c3)C(C(=O)O)=CC[C@H]2c2cccc(C)c2)cc1", 58],
  ["COc1cc([C@@H]2C[C@@H](SCCC(C)C)[C@H](C(=O)O)CN2S(=O)(=O)c2ccc(C)cc2)cc(OC)c1OC", 106],
  ["CS(=O)(=O)N1[C@@H](c2cccc(Cl)c2)C(C(=O)O)=CC[C@H]1c1ccc(Cl)cc1", 60.3]
]}

The record that follows has no Activity shown yet.
Give the reported value of Activity for this record: `Cc1ccc(S(=O)(=O)N2[C@@H](c3ccc(C(C)(C)C)cc3)C(C(=O)O)=CC[C@H]2c2ccc(C(C)C)cc2)cc1`
88.3
